Catalogue of growth values
- System: T-47D breast
- assay.remarks: NCI-60 one-dose screen, 48 h (100 = growth as untreated, 0 = no growth, -100 = all killed)
- conditions.used: 10 µM unless noted
About 83,000 compounds went through this panel and 20% of them were active in at least one assay; those are over-represented in the sample as a whole.
reported.endpoint: growth (%)

| molecule | recorded.value |
| --- | --- |
| COc1ccc(/C=C2\N=C(c3ccccc3)N(C(=O)c3ccccc3O)NC2=O)cc1 | 96.6 |
| Clc1cc(Cl)cc(-c2ccc(-c3ccc(/C=N/NC4=NCCN4)cc3)s2)c1 | 56.4 |
| Cc1cccc(/C=N/Nc2cc(C)c3cccc(C)c3n2)n1 | 83 |
| COc1ccc(C(=O)c2cc(OC)c3c(c2)OCO3)cc1O | 56.9 |
| COc1cc(-c2ncn(/C=C\C(=O)OC(C)C)n2)cc(C(F)(F)F)c1 | 16.3 |
| O=C1C2(c3ccccc3)C(c3ccccc3)=C(c3ccccc3)C1(c1ccccc1)C1CC=CC12 (stereo not drawn) | 68.3 |
| COc1ccc(-n2c(=O)sc3c(Cl)nc(C)nc32)c(OC)c1 | 84.7 |
| CN1C(=O)N(C)C2C1NN=c1s/c(=C\C=C\c3ccccc3)c(=O)n12 (stereo not drawn) | 53.1 |
| C=C[C@@H]1C[C@H](O)Cc2cc(F)ccc2N1 | 108 |
| CCOC(=O)CN1/C(=N/c2sc3c(c2C(=O)OCC)CCN(C(=O)OCC)C3)SC(=O)/C1=C\C(=O)OC | 30.8 |
| COc1ccc(-n2c(=S)sc3c(Cl)nc(C)nc32)c(OC)c1 | 51.3 |
| O=C(NNC(=O)N1c2ccccc2C=Cc2ccccc21)c1ccc2ccccc2c1 | 87.4 |
| Cc1ccc(S(=O)(=O)c2nc(-c3ccccc3)oc2S(C)(=O)=O)cc1 | -42.6 |
| C1=Cc2ccccc2N(c2nnc(-c3ccccc3)o2)c2ccccc21 | 100 |
| C=C[C@@H]1C[C@@H]2Cc3cc(F)ccc3N1O2 | 111 |
| CCN1CCN(c2nc(NNC(=O)c3ccccc3)nc(N3CCN(C(c4ccccc4)c4ccccc4)CC3)n2)CC1 | 40.7 |
| CN1C=CN(Cc2ccc(-c3ccccn3)nc2)[CH-]1.CN1C=CN(Cc2ccc(-c3ccccn3)nc2)[CH-]1.[Au+3] | 40.2 |
| COc1ccc2cc(-c3ccc(-c4ccc(C(=N)N)cc4)s3)ccc2c1 | 91.2 |
| COc1ccc(-c2cnoc2-c2ccc(OC)cc2O)cc1 | 40.3 |
| COc1ccc(C2C=C(c3ccc(N)cc3)N=C3SC=CN32)cc1OC (stereo not drawn) | 102 |
| Cc1nn(-c2ccc(Cl)cc2)c2ncnc(N/N=C/c3cccc([N+](=O)[O-])c3)c12 | 101 |
| CC1=C(C#N)C(=O)NC(C)C1 (stereo not drawn) | 91.4 |
| Cc1c(C(N)=O)sc2c1c(=O)n(Cc1ccccc1)c1nnc(Nc3ccccc3)n21 | 89 |
| O=c1ccn(-c2ncnc3nc[nH]c23)cc1 | 84 |
| O=S1(=O)CCC(N(/N=C/c2ccco2)c2ccccc2)C1 (stereo not drawn) | 103 |
| O=C(O)COc1ccc(-c2cssc2=S)cc1 | 95.5 |
| C=C(C)[C@@H]1CC[C@]2(C(=O)O)CC[C@]3(C)[C@H](CC[C@@H]4[C@@]5(C)C[C@@H](CC#Cc6ccc(C(F)(F)F)cc6)[C@H](O)C(C)(C)[C@@H]5CC[C@]43C)[C@@H]12 | 19 |
| NC1=NN(O)C2=CC([N+](=O)[O-])C=CC2=N1 (stereo not drawn) | 101 |
| COc1ccc(/C=N\NC(=O)CN2CCN(c3cc4c(cc3F)c(=O)c(C(=O)N/N=C/c3ccc(OC)c(OC)c3)cn4C3CC3)CC2)cc1OC | 3.79 |
| Nc1cccc(-c2nc3sccn3c2-c2ccnc(NCCCNS(=O)(=O)c3cccc4ccccc34)n2)c1 | -2.4 |
| C=C1C(=O)O[C@H]2[C@H]1CC/C(Cn1cc(CNC(=O)/C=C/c3c[nH]c4ccccc34)nn1)=C\CC[C@@]1(C)O[C@@H]21 | 107 |
| c1ccc(-c2cn(-c3ccccc3)c(-c3ccccc3)n2)cc1 | 67.5 |
| Cc1ccc(S(=O)(=O)NC(=O)n2cc(-c3ccncc3)c(-c3ccc(Cl)c(O)c3)n2)cc1 | 108 |

From: PubChem BioAssay (NCI)
